Reference for the values: ChEMBL document CHEMBL1133730

For reference, pKi measured on Adenosine receptor A1 (Rattus norvegicus, UniProt P25099):
Entry type: numeric. Quantity: pKi, the -log10 of concentration in molar units.

Below, 2 compounds whose answers are already recorded.
smiles-repr | reading
Nc1ncnc2c1ncn2[C@H]1[C@H](O)[C@H](O)[C@]2(CO)C[C@H]12 | 5.77
OC[C@@]12C[C@@H]1[C@@H](n1cnc3c(NCc4cccc(I)c4)nc(Cl)nc31)[C@H](O)[C@@H]2O | 6.85

Now for the compound whose pKi we want.
Ask: Short answer please: pKi, Adenosine receptor A1 (Rattus norvegicus, UniProt P25099), entry `OC[C@H]1C[C@@H](n2cnc3c(NCc4cccc(I)c4)ncnc32)[C@H](O)[C@@H]1O`
Result: 4.59

---

Target: UniProt P25099
Sequence (whole entry): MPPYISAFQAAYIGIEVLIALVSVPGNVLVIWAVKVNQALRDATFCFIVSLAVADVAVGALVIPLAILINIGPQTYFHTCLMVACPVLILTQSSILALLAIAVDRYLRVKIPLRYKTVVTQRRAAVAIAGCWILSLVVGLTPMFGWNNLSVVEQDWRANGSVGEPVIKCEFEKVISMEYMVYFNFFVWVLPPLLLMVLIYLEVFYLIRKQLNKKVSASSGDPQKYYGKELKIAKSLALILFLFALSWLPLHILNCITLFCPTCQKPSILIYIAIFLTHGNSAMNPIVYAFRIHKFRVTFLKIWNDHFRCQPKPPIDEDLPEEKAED
Assay: Maximum stimulation against adenosine A1 receptor of rat cerebral cortical membrane
metric-name: Max (%)
Give your result in % as a bare value.

Completed entries (count: 3):
smiles-repr | Max / %
OC[C@H]1O[C@@H](n2cnc3c(NCc4cccc(I)c4)ncnc32)[C@H](O)[C@@H]1O | 95
OC[C@@]12C[C@@H]1[C@@H](n1cnc3c(NC4CCCC4)ncnc31)[C@H](O)[C@@H]2O | 75
OC[C@@]12C[C@@H]1[C@@H](n1cnc3c(NC4CCCC4)nc(Cl)nc31)[C@H](O)[C@@H]2O | 96

Ask: Report Max for `OC[C@@]12C[C@@H]1[C@@H](n1cnc3c(NCc4cccc(I)c4)nc(Cl)nc31)[C@H](O)[C@@H]2O` tested on UniProt P25099.
Result: 48

---

Quick reference for pKi among some molecules
molecular target: Adenosine receptor A2a (Rattus norvegicus, UniProt P30543)
Sequence (P30543 whole entry): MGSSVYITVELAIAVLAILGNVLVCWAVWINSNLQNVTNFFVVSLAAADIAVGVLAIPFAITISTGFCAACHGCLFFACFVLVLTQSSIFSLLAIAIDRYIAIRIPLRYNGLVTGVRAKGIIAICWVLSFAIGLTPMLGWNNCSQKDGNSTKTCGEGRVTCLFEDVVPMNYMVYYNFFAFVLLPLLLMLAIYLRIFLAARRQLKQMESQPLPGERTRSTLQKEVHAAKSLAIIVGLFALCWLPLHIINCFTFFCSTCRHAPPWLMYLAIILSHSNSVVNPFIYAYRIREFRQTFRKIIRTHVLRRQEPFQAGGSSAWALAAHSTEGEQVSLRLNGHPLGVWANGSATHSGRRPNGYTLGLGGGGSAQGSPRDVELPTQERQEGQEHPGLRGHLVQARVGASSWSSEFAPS
Scale: pKi equals -log10([C]), with [C] in mol/L.

molecule | target-or-system | metric-name | reading
OC[C@@]12C[C@@H]1[C@@H](n1cnc3c(NC4CCCC4)nc(Cl)nc31)[C@H](O)[C@@H]2O | Adenosine receptor A2a (Rattus norvegicus, UniProt P30543) | pKi | 5.47

For the next question, use this molecule.
Ask: State its pKi on Adenosine receptor A2a (Rattus norvegicus, UniProt P30543): OC[C@H]1O[C@@H](n2cnc3c(NC4CCCC4)ncnc32)[C@H](O)[C@@H]1O [N6-CYCLOPENTYLADENOSINE]
Result: 6.07

---

Target: Adenosine receptor A2b (Homo sapiens, UniProt P29275)
Sequence (P29275 whole entry): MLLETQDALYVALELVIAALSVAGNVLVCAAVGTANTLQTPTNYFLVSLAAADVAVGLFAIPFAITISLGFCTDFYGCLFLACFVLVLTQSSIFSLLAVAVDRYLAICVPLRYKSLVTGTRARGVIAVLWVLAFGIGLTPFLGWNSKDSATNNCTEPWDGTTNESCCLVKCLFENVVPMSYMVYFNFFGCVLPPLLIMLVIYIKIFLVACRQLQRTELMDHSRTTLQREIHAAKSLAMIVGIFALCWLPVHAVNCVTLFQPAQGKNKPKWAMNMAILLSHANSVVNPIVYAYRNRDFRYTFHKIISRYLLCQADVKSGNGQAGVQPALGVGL
# pKi per entry
pKi field: float, defined as -log10 of concentration (mol/L).

Ask: Return reported pKi; argument: `OC[C@@]12C[C@@H]1[C@@H](n1cnc3c(NCc4cccc(I)c4)nc(Cl)nc31)[C@H](O)[C@@H]2O`
Result: 4.39

Ask: Quick one: pKi of `OC[C@@]12C[C@@H]1[C@@H](n1cnc3c(NC4CCCC4)ncnc31)[C@H](O)[C@@H]2O` ?
Result: 3.86
